TARGET OR SYSTEM: Serine/threonine-protein kinase mTOR (Mus musculus)
PROTOCOL DESCRIPTION: Inhibition of mTOR in Tscl-/- null mouse MEF assessed as reduction on RPS6 phosphorylation at Ser235/236 residue by alpha-screen assay

| SMILES CODE | TARGET OR SYSTEM | U | IC50 |
| --- | --- | --- | --- |
| C[C@H]1OC(=O)N(c2nc(-c3cnc(N)nc3C(F)(F)F)cc(N3CCOCC3)n2)[C@H]1CO | Serine/threonine-protein kinase mTOR (Mus musculus) | nM | 1630 |

----------
PROTOCOL DESCRIPTION: Solubility of compound in simulated gastric fluid at pH 2 measured upto 30 mins by HPLC analysis
Type: physicochemical
PARAMETER MEASURED: solubility at 0.5 h (µM)

| SMILES CODE | RECORDED RESULT |
| --- | --- |
| C[C@H]1OC(=O)N(c2nc(-c3cnc(N)nc3C(F)(F)F)cc(N3CCOCC3)n2)[C@H]1CO | 64 |

----------
TARGET OR SYSTEM: Phosphatidylinositol 4,5-bisphosphate 3-kinase catalytic subunit alpha isoform (Homo sapiens, UniProt P42336)
Sequence (P42336 whole entry, canonical isoform): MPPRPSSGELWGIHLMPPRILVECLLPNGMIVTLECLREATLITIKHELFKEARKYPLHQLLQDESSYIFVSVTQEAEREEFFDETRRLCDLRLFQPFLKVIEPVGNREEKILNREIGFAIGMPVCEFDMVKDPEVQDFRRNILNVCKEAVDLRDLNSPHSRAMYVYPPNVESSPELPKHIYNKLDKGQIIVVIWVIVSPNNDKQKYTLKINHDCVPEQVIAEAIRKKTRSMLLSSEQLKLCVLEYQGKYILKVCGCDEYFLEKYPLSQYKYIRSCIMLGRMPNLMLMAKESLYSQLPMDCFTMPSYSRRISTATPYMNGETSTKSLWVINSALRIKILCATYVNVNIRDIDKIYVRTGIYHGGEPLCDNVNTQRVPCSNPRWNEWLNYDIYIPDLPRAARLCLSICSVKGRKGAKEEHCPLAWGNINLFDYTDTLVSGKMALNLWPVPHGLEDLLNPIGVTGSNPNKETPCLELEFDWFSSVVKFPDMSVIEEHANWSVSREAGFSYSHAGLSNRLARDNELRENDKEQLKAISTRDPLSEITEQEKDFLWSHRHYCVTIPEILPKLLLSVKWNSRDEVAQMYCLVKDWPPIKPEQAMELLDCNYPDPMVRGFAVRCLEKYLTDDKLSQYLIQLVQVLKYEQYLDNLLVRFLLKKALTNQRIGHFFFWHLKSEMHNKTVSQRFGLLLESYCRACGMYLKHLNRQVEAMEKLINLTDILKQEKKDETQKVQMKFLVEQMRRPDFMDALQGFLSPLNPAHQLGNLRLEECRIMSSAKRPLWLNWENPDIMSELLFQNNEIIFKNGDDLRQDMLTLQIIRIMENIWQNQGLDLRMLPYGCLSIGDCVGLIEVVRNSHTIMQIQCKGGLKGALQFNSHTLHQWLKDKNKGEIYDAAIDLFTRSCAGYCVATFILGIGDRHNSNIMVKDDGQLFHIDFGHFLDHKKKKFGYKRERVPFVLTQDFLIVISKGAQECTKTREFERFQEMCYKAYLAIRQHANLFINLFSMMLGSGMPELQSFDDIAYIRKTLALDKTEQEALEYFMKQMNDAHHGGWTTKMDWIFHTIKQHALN
PROTOCOL DESCRIPTION: Inhibition of PI3Kalpha (unknown origin) using L-alpha-phosphatidylinositol as substrate in presence of ATP by Kinase Glo luminescence assay
pIC50: −log10 of the molar value.

| SMILES CODE | pIC50 |
| --- | --- |
| C[C@H]1OC(=O)N(c2nc(-c3cnc(N)nc3C(F)(F)F)cc(N3CCOCC3)n2)[C@H]1CO | 7.92 |

----------
TARGET OR SYSTEM: Serine/threonine-protein kinase mTOR (Homo sapiens)
PROTOCOL DESCRIPTION: Binding affinity to human N-terminal GST-tagged mTOR assessed as phosphorylated 4EBP1 by TR-FRET assay

| SMILES CODE | TARGET OR SYSTEM | COMPARATIVE SIGN | IC50, µM |
| --- | --- | --- | --- |
| Nc1ncc(-c2cc(N3CCOCC3)nc(N3CCOCC3)n2)c(=O)[nH]1 | Serine/threonine-protein kinase mTOR (Homo sapiens) | = | 0.44 |
| Nc1cc(C(F)(F)F)c(-c2cc(N3CCS(=O)(=O)CC3)nc(N3CCOCC3)n2)cn1 | Serine/threonine-protein kinase mTOR (Homo sapiens) | > | 9.1 |
| COc1ccc2c(c1)OCCN2c1cc(-c2cnc(N)nc2)nc(N2CCOCC2)n1 | Serine/threonine-protein kinase mTOR (Homo sapiens) | > | 9.1 |
| Nc1cc(C(F)(F)F)c(-c2cc(N3CCOCC3)nc(N3CCOCC3)c2)cn1 | Serine/threonine-protein kinase mTOR (Homo sapiens) | > | 9.1 |
| Nc1ncc(-c2cc(N3CCOCC3)nc(N3CCOCC3)n2)c(C(F)(F)F)n1 | Serine/threonine-protein kinase mTOR (Homo sapiens) | = | 6.31 |

----------
PROTOCOL DESCRIPTION: cells
CONDITION DESCRIPTION: Homo sapiens, U-87 MG, 16 h

| SMILES CODE | U | IC50 |
| --- | --- | --- |
| C[C@H]1OC(=O)N(c2nc(-c3cnc(N)nc3C(F)(F)F)cc(N3CCOCC3)n2)[C@H]1CO | nM | 100 |
